In this section we review reported IC50 values for a set of compounds.
- System: MiaPaca-2 cells (pancreatic cancer)
- protocol_description: Proliferation test method 1 (2D, MTT), MiaPaca-2
- Format: cell-based
- condition_label: Homo sapiens, MIA PaCa-2, 2D, 5-7 days, read-out: IC50/nM proliferation inhibitory activity on MiaPaca-2 cells
Please give a number only; it is taken to be in nM.

Below, each entry is followed by its recorded IC50 result.
C=CC(=O)N1C[C@@H]2C(=O)N(C)c3cnc4c(F)c(-c5ccc(F)c6sc(N)nc56)c(Cl)cc4c3N2C[C@H]1C (single isomer, unassigned) [Example 17-1] : 24.8
C=CC(=O)N1CCN(c2c(C#N)c(NC[C@@H]3CCCN3C)nc3c(F)c(-c4ccc(F)c5sc(N)nc45)c(Cl)cc23)CC1 [Example 4] : 1.1

Prompt line: Any idea what its IC50 is? The compound is C=CC(=O)N1CCN(c2c(C#N)c(NCCC(=O)N(C)C)nc3c(F)c(-c4ccc(F)c5sc(N)nc45)c(Cl)cc23)CC1 [Example 22]
Response line: 0.93

* * *

- protocol_description: In vivo pharmacokinetic parameter testing in mice
- Parameters: species or system ICR mice
- condition_label: male, ICR, mouse, plasma, iv(1 mg/kg), read-out: Below the curve and AUC0-t
result_type: AUC(0-t) (µM·h)
Number in µM·h, nothing else.

C=CC(=O)N1CCN(c2c(C#N)c(N3CC(N(C)C)C3)nc3c(F)c(-c4ccc(F)c5sc(N)nc45)c(Cl)cc23)CC1 [Example 21] : 1.29

Prompt line: Requested read-out: AUC(0-t). Entry: C=CC(=O)N1CCN(c2c(C#N)c(OC[C@@H]3CCCN3C)nc3c(F)c(-c4ccc(F)c5sc(N)nc45)c(Cl)cc23)CC1 [Example 3]
Response line: 4.09

Prompt line: Now consider C=CC(=O)N1CCN(c2c(C#N)cnc3c(F)c(-c4ccc(F)c5sc(N)nc45)c(Cl)cc23)CC1 [Example 8] and answer again.
Response line: 2.85

Prompt line: Another compound: C=CC(=O)N1C[C@@H]2C(=O)N(C)c3cnc4c(F)c(-c5ccc(F)c6sc(N)nc56)c(Cl)cc4c3N2C[C@H]1C (single isomer, unassigned) [Example 17-1]
Response line: 3.31

* * *

// half-life at 1 µM lookup, one value per entry
- protocol_description: Metabolic stability assay, mouse liver microsomes
- Format: in vitro ADME
- condition_label: mouse liver microsomes 0.5 mg/mL, 1 µM compound, read-out: Liver microsomal stability (T½ /min) Mouse

# annotated cases, reported half-life at 1 µM shown
C=CC(=O)N1C[C@@H]2C(=O)N(C)c3cnc4c(F)c(-c5ccc(F)c6sc(N)nc56)c(Cl)cc4c3N2C[C@H]1C (single isomer, unassigned) : > 30 min
C=CC(=O)N1CCN(c2c(C#N)c(OCCN(C)C)nc3c(F)c(-c4ccc(F)c5sc(N)nc45)c(Cl)cc23)CC1 : > 30 min
C=CC(=O)N1CCN(c2c(C#N)cnc3c(F)c(-c4ccc(F)c5sc(N)nc45)c(Cl)cc23)CC1 : > 30 min
C=C(F)C(=O)N1CCN(c2c(C#N)c(OC[C@@H]3CCCN3C)nc3c(F)c(-c4ccc(F)c5sc(N)nc45)c(Cl)cc23)CC1 : > 30 min

Consider the additional compound presented here.
Prompt line: I'd like to know its half-life at 1 µM. The compound in question is C=CC(=O)N1CC2C(=O)N(C)c3cnc4c(F)c(-c5c(O)cccc5F)c(Cl)cc4c3N2CC1C (single isomer, unassigned) [Comparative Compound 2-1, reference compound]
Response line: 47 min

* * *

pIC50 listing for selected compounds.
- assayed_target: CYP2C19 (Homo sapiens, UniProt P33261)
- Sequence (P33261 whole entry): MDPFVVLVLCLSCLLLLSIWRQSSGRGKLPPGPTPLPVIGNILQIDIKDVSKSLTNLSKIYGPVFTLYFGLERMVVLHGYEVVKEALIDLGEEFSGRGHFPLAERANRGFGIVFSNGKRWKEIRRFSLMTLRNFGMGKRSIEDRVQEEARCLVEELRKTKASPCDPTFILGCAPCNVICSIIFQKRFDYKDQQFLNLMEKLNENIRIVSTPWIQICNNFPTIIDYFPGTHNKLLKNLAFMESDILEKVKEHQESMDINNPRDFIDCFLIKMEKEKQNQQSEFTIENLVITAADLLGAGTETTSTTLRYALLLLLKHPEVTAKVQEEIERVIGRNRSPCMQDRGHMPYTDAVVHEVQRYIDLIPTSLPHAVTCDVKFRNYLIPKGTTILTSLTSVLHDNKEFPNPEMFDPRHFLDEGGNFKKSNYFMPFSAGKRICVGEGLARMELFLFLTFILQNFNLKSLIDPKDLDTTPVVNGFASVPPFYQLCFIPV
pIC50: −log10 of the molar value.

Below are worked cases with known answers.
C=CC(=O)N1CCN(c2nc(OC[C@@H]3CCCN3C)nc3c(F)c(-c4ccc(F)c5sc(N)nc45)c(Cl)cc23)C[C@H]1C : < 5.00
C=CC(=O)N1CCN(c2c(C#N)cnc3c(F)c(-c4ccc(F)c5sc(N)nc45)c(Cl)cc23)CC1 : < 5.00

Prompt line: What value of pIC50 has been reported for the following compound? C=CC(=O)N1C[C@@H]2C(=O)N(C)c3cnc4c(F)c(-c5ccc(F)c6sc(N)nc56)c(Cl)cc4c3N2C[C@H]1C (single isomer, unassigned)
Response line: < 5.00

* * *

- assayed_target: KRAS^G12C/SOS1 (Homo sapiens, UniProt P01116, G12C)
- Construct: purchased CisBio
- Sequence (P01116 1-188 isoform P01116-2 G12C): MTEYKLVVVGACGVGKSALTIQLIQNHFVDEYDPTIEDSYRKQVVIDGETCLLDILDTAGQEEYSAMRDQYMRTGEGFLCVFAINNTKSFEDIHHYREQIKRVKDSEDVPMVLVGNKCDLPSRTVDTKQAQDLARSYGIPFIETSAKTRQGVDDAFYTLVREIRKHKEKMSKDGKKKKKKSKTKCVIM
- protocol_description: KRAS^G12C/SOS1 protein-protein interaction Binding assay (CisBio kit)
- condition_label: class symbols
- Procedure: CisBio’s KRAS^G12C/SOS1 kit was used to test the efficacy of the compound on inhibiting the protein-protein interaction between SOS1 and KRAS^G12Cby Binding assay.Results were expressed as IC50values. Test methods: (1) the test compound was tested at a concentration of 1000 nM. Diluted to 3-fold diluted compound of a 200-fold final concentration of 100% DMSO solution in a 384-well plate at 10 concentrations. […]
result_type: IC50

Prompt line: Would you kindly share the measured IC50 for C=CC(=O)N1C[C@@H]2C(=O)N(C)c3cnc4c(F)c(-c5ccc(F)c6sc(N)nc56)c(Cl)cc4c3N2C[C@H]1C (single isomer, unassigned) ?
Response line: 50 to 200 nM

Prompt line: Follow-up item: `C=CC(=O)N1CCN(c2c(C#N)cnc3c(F)c(-c4ccc(F)c5sc(N)nc45)c(Cl)cc23)[C@@H](C)C1`
Response line: 50 to 200 nM

Prompt line: Next up: `C=CC(=O)N1CCN(c2c(C#N)cnc3c(F)c(-c4ccc(F)c5sc(N)nc45)c(Cl)cc23)C[C@H]1C`
Response line: 50 to 200 nM

Prompt line: How about C=CC(=O)N1CC2C(=O)N(C)c3cnc4c(F)c(-c5c(O)cccc5F)c(Cl)cc4c3N2CC1C (single isomer, unassigned) [Comparative Compound 2-2, reference compound] ?
Response line: > 1000 nM

Prompt line: Request: `C=CC(=O)N1CCN(c2nc(OCCN(C)C)nc3c(F)c(-c4ccc(F)c5sc(N)nc45)c(Cl)cc23)CC1`
Response line: < 50 nM

* * *

# reported IC50; entries follow
- assayed_target: KRAS^G12C/SOS1 (Homo sapiens, UniProt P01116, G12C)
- Construct: purchased CisBio
- protocol_description: KRAS^G12C/SOS1 protein-protein interaction Binding assay (CisBio kit)
- condition_label: class symbols
- Protocol: CisBio’s KRAS^G12C/SOS1 kit was used to test the efficacy of the compound on inhibiting the protein-protein interaction between SOS1 and KRAS^G12Cby Binding assay.Results were expressed as IC50values. Test methods: (1) the test compound was tested at a concentration of 1000 nM. Diluted to 3-fold diluted compound of a 200-fold final concentration of 100% DMSO solution in a 384-well plate at 10 concentrations. […]

C=CC(=O)N1CCN(c2c(C#N)c(Cl)nc3c(F)c(-c4ccc(F)c5sc(N)nc45)c(Cl)cc23)CC1 : 50 to 200 nM
C=CC(=O)N1CCN(c2c(C#N)c(NC[C@@H]3CCCN3C)nc3c(F)c(-c4ccc(F)c5sc(N)nc45)c(Cl)cc23)CC1 : < 50 nM
C=CC(=O)N1CCN(c2nc(OC[C@@H]3C[C@@H](O)CN3C)nc3c(F)c(-c4ccc(F)c5sc(N)nc45)c(Cl)cc23)CC1 : < 50 nM

Prompt line: What value of IC50 has been recorded for this entry: `C=CC(=O)N1CCN(c2c(C#N)c(N3CC(N(C)C)C3)nc3c(F)c(-c4ccc(F)c5sc(N)nc45)c(Cl)cc23)CC1`
Response line: < 50 nM

Prompt line: Another molecule: `C=CC(=O)N1CCN(c2c(C#N)c(OC[C@@H]3CCCN3C)nc3c(F)c(-c4ccc(F)c5sc(N)nc45)c(Cl)cc23)CC1`
Response line: < 50 nM

Prompt line: Same question for `C=C(F)C(=O)N1C[C@@H]2C(=O)N(C)c3cnc4c(F)c(-c5ccc(F)c6sc(N)nc56)c(Cl)cc4c3N2C[C@H]1C` please.
Response line: 50 to 200 nM

Prompt line: Then what about the molecule `C=CC(=O)N1CCN(c2c(C#N)cnc3c(F)c(-c4ccc(F)c5sc(N)nc45)c(Cl)cc23)CC1` ?
Response line: < 50 nM

Prompt line: Next up: C=CC(=O)N1CC2C(=O)N(C)c3cnc4c(F)c(-c5c(O)cccc5F)c(Cl)cc4c3N2CC1C (single isomer, unassigned) [Comparative Compound 2-1, reference compound]
Response line: 50 to 200 nM

Prompt line: Quick one: `C=C(F)C(=O)N1CCN(c2c(C#N)cnc3c(F)c(-c4ccc(F)c5sc(N)nc45)c(Cl)cc23)CC1`
Response line: 50 to 200 nM

Prompt line: One more molecule: `C=CC(=O)N1CCN(c2nc(NC[C@@H]3CCCN3C)nc3c(F)c(-c4ccc(F)c5sc(N)nc45)c(Cl)cc23)CC1`
Response line: < 50 nM

Prompt line: Let us now turn to `C=C(F)C(=O)N1CCN(c2c(C#N)c(OC[C@@H]3CCCN3C)nc3c(F)c(-c4ccc(F)c5sc(N)nc45)c(Cl)cc23)CC1`
Response line: 50 to 200 nM

Prompt line: Try this molecule next: `C=CC(=O)N1CCN(c2nc(Cl)nc3c(F)c(-c4ccc(F)c5sc(N)nc45)c(Cl)cc23)CC1`
Response line: 50 to 200 nM

Prompt line: Try this molecule next: `C=CC(=O)N1CCN(c2c(C#N)c(OCCN(C)C)nc3c(F)c(-c4ccc(F)c5sc(N)nc45)c(Cl)cc23)CC1`
Response line: < 50 nM

Measured values drawn from patent US20230174526A1 for this set.
